Test: Selectivity index, ratio of CC50 for human MT4 cells to EC50 for wild type HIV1 3B
Assay type: toxicity
Conditions: read-out: Ratio CC50/EC50
Examples of compounds with documented selectivity ratio follow.

Example entries begin here.
Cc1ccnc2c1NC(=O)c1cccnc1N2C1CC1 [NEVIRAPINE]	> 179
N#Cc1ccc(Nc2nccc(Oc3ccc(C(=O)CC(=O)C(=O)O)cc3)n2)cc1	182 to 183
CCOC(=O)C(=O)CC(=O)c1cccc(O)c1	< 1
CCOC(=O)C(=O)CC(=O)c1cccc(Oc2ccnc(Nc3ccc(C#N)cc3)n2)c1	78
O=C(O)C(=O)CC(=O)c1ccc(O)cc1	1

Fill blank: measured selectivity ratio of the compound `N#Cc1ccc(Nc2nccc(Oc3cccc(C(=O)CC(=O)C(=O)O)c3)n2)cc1` is ____. 71 to 442

Item: `CCOC(=O)C(=O)CC(=O)c1ccc(O)cc1` < 1

====

Experiment: Cytotoxicity against human MT4 cells assessed as decrease in cell viability after 5 days by MTT assay
Assay type: cell-based
quantity: CC50 at 120 h

Before answering, review these 10 worked examples.
Cc1cc(C#N)cc(C)c1Oc1nc(Nc2ccc(C#N)cc2)nc(N)c1Br	4.6 to 5 µM
O=C1Nc2ccc(Cl)cc2[C@@](C#CC2CC2)(C(F)(F)F)O1	9 to 9.3 µM
Cc1ccnc2c1NC(=O)c1cccnc1N2C1CC1	> 15 µM
CCOC(=O)C(=O)CC(=O)c1ccc(O)cc1	466 µM
N#Cc1ccc(Nc2nccc(Oc3cccc(C(=O)CC(=O)C(=O)O)c3)n2)cc1	10 to 62 µM
O=C(O)/C(O)=C/C(=O)c1cccc(Cc2ccccc2)c1	> 10 µM
N#Cc1ccc(Nc2nccc(Oc3ccc(C(=O)CC(=O)C(=O)O)cc3)n2)cc1	42 µM
CCOC(=O)C(=O)CC(=O)c1ccc(Oc2ccnc(Nc3ccc(C#N)cc3)n2)cc1	18 µM
Cc1cn([C@H]2C[C@H](N=[N+]=[N-])[C@@H](CO)O2)c(=O)[nH]c1=O	7 to 7.5 µM
CCOC(=O)C(=O)CC(=O)c1cccc(Oc2ccnc(Nc3ccc(C#N)cc3)n2)c1	14 µM

For the molecule shown here, `O=C(O)C(=O)CC(=O)c1cccc(O)c1` , give the reported CC50 at 120 h. 528 µM

`O=C(O)C(=O)CC(=O)c1ccc(O)cc1` , same question. > 600 µM

And `CCOC(=O)C(=O)CC(=O)c1cccc(O)c1` ? 356 to 364 µM
